Target: Thrombin, from Human Plasma, high activity (human, UniProt P00734 328-622)
Test name: cell-based or functional assay
Measurement name: % inhibition at 100 µM (%)
Kindly provide the numeric value in % only, without the unit symbol.

Data request: Request the reported % inhibition at 100 µM associated with YCTKSDPPICY (HELM PEPTIDE1{Y.C.T.K.S.D.P.P.I.C.Y.[dP].P}$PEPTIDE1,PEPTIDE1,2:R3-10:R3|PEPTIDE1,PEPTIDE1,1:R1-13:R2$$$V2.0; SMILES CC[C@H](C)[C@@H]1NC(=O)[C@@H]2CCCN2C(=O)[C@@H]2CCCN2C(=O)[C@H](CC(=O)O)NC(=O)[C@H](CO)NC(=O)[C@H](CCCCN)NC(=O)[C@H]([C@@H](C)O)NC(=O)[C@@H]2CSSC[C@H](NC1=O)C(=O)N[C@@H](Cc1ccc(O)cc1)C(=O)N1CCC[C@@H]1C(=O)N1CCC[C@H]1C(=O)N[C@@H](Cc1ccc(O)cc1)C(=O)N2) [Example 26]
Data returned: 3

Data request: Try ICTKSDPPXCR (HELM PEPTIDE1{I.C.T.K.S.D.P.P.[Nle].C.R.[dP].P}$PEPTIDE1,PEPTIDE1,2:R3-10:R3|PEPTIDE1,PEPTIDE1,1:R1-13:R2$$$V2.0; SMILES CCCC[C@@H]1NC(=O)[C@@H]2CCCN2C(=O)[C@@H]2CCCN2C(=O)[C@H](CC(=O)O)NC(=O)[C@H](CO)NC(=O)[C@H](CCCCN)NC(=O)[C@H]([C@@H](C)O)NC(=O)[C@@H]2CSSC[C@H](NC1=O)C(=O)N[C@@H](CCCNC(=N)N)C(=O)N1CCC[C@@H]1C(=O)N1CCC[C@H]1C(=O)N[C@@H]([C@@H](C)CC)C(=O)N2) [Example 19] next.
Data returned: 11

Data request: Try FCTKSDPPICS (HELM PEPTIDE1{F.C.T.K.S.D.P.P.I.C.S.[dA].D}$PEPTIDE1,PEPTIDE1,2:R3-10:R3|PEPTIDE1,PEPTIDE1,1:R1-13:R2$$$V2.0; SMILES CC[C@H](C)[C@@H]1NC(=O)[C@@H]2CCCN2C(=O)[C@@H]2CCCN2C(=O)[C@H](CC(=O)O)NC(=O)[C@H](CO)NC(=O)[C@H](CCCCN)NC(=O)[C@H]([C@@H](C)O)NC(=O)[C@@H]2CSSC[C@H](NC1=O)C(=O)N[C@@H](CO)C(=O)N[C@H](C)C(=O)N[C@@H](CC(=O)O)C(=O)N[C@@H](Cc1ccccc1)C(=O)N2) [Example 68] next.
Data returned: 5.4

Data request: Try FCTKSEPPICT (HELM PEPTIDE1{F.C.T.K.S.E.P.P.I.C.T.[dP].P}$PEPTIDE1,PEPTIDE1,2:R3-10:R3|PEPTIDE1,PEPTIDE1,1:R1-13:R2$$$V2.0; SMILES CC[C@H](C)[C@@H]1NC(=O)[C@@H]2CCCN2C(=O)[C@@H]2CCCN2C(=O)[C@H](CCC(=O)O)NC(=O)[C@H](CO)NC(=O)[C@H](CCCCN)NC(=O)[C@H]([C@@H](C)O)NC(=O)[C@@H]2CSSC[C@H](NC1=O)C(=O)N[C@@H]([C@@H](C)O)C(=O)N1CCC[C@@H]1C(=O)N1CCC[C@H]1C(=O)N[C@@H](Cc1ccccc1)C(=O)N2) [Example 1] next.
Data returned: 1.1

Data request: Try FCTKSDPPICS (HELM PEPTIDE1{F.C.T.K.S.D.P.P.I.C.S.[dD].P}$PEPTIDE1,PEPTIDE1,2:R3-10:R3|PEPTIDE1,PEPTIDE1,1:R1-13:R2$$$V2.0; SMILES CC[C@H](C)[C@@H]1NC(=O)[C@@H]2CCCN2C(=O)[C@@H]2CCCN2C(=O)[C@H](CC(=O)O)NC(=O)[C@H](CO)NC(=O)[C@H](CCCCN)NC(=O)[C@H]([C@@H](C)O)NC(=O)[C@@H]2CSSC[C@H](NC1=O)C(=O)N[C@@H](CO)C(=O)N[C@H](CC(=O)O)C(=O)N1CCC[C@H]1C(=O)N[C@@H](Cc1ccccc1)C(=O)N2) [Example 46] next.
Data returned: 6.9

Data request: Try FCTKSDPPICS (HELM PEPTIDE1{F.C.T.K.S.D.P.P.I.C.S.[dA].P}$PEPTIDE1,PEPTIDE1,2:R3-10:R3|PEPTIDE1,PEPTIDE1,1:R1-13:R2$$$V2.0; SMILES CC[C@H](C)[C@@H]1NC(=O)[C@@H]2CCCN2C(=O)[C@@H]2CCCN2C(=O)[C@H](CC(=O)O)NC(=O)[C@H](CO)NC(=O)[C@H](CCCCN)NC(=O)[C@H]([C@@H](C)O)NC(=O)[C@@H]2CSSC[C@H](NC1=O)C(=O)N[C@@H](CO)C(=O)N[C@H](C)C(=O)N1CCC[C@H]1C(=O)N[C@@H](Cc1ccccc1)C(=O)N2) [Example 49] next.
Data returned: 7.9

Data request: Try FCTXSDPPICY (HELM PEPTIDE1{F.C.T.[Nle].S.D.P.P.I.C.Y.[dP].P}$PEPTIDE1,PEPTIDE1,2:R3-10:R3|PEPTIDE1,PEPTIDE1,1:R1-13:R2$$$V2.0; SMILES CCCC[C@@H]1NC(=O)[C@H]([C@@H](C)O)NC(=O)[C@@H]2CSSC[C@H](NC(=O)[C@H]([C@@H](C)CC)NC(=O)[C@@H]3CCCN3C(=O)[C@@H]3CCCN3C(=O)[C@H](CC(=O)O)NC(=O)[C@H](CO)NC1=O)C(=O)N[C@@H](Cc1ccc(O)cc1)C(=O)N1CCC[C@@H]1C(=O)N1CCC[C@H]1C(=O)N[C@@H](Cc1ccccc1)C(=O)N2) [Example 60] next.
Data returned: 0

These measurements were taken from patent US20140213531A1.
